Measured Melanotropic inhibitory activity, stimulator PBAN accompanies every entry in the list below.
Tested on: Spodoptera littoralis larvae
method: Melanotropic inhibitory activity: injection with a stimulator (PBAN, PT, LPK, DH)
Assay type: in vivo
experimental.conditions: injected with PBAN; 100 pm; inhibition = 100 minus % melanization with vs without peptide
Square brackets hold non-standard residues; d marks the D form. Ends that are not written are not given here. * marks the point of attachment. Cyclohexyl = cyclohexyl group capping the N-terminus, C1CCC(*)CC1; Fmoc = O=C(OCC1c2ccccc2-c2ccccc21)*

Examples with answers:
Arg-Tyr-Phe-Ser-Pro-[dPhe]-Leu-amide (RYFSP[dF]L-NH2; N-terminus assumed; SMILES CC(C)C[C@H](NC(=O)[C@@H](Cc1ccccc1)NC(=O)[C@@H]1CCCN1C(=O)[C@H](CO)NC(=O)[C@H](Cc1ccccc1)NC(=O)[C@H](Cc1ccc(O)cc1)NC(=O)[C@@H](N)CCCNC(=N)N)C(N)=O) [dPhe-6]    49%
Acetyl-Arg-Tyr-Phe-Ser-Pro-[dPhe]-Leu-amide (Ac-RYFSP[dF]L-NH2; SMILES CC(=O)N[C@@H](CCCNC(=N)N)C(=O)N[C@@H](Cc1ccc(O)cc1)C(=O)N[C@@H](Cc1ccccc1)C(=O)N[C@@H](CO)C(=O)N1CCC[C@H]1C(=O)N[C@H](Cc1ccccc1)C(=O)N[C@@H](CC(C)C)C(N)=O) [Ac-dPhe-6]    59%
Fmoc-Ala-[dPhe]-Pro-Arg-Leu-amide (Fmoc-A[dF]PRL-NH2; SMILES CC(C)C[C@H](NC(=O)[C@H](CCCNC(=N)N)NC(=O)[C@@H]1CCCN1C(=O)[C@@H](Cc1ccccc1)NC(=O)[C@H](C)NC(=O)OCC1c2ccccc2-c2ccccc21)C(N)=O) [Fmoc-A-dPhe-4]    68%
Cyclohexyl-Ala-Ser-Pro-[dPhe]-Leu-amide (Cyclohexyl-ASP[dF]L-NH2; SMILES CC(C)C[C@H](NC(=O)[C@@H](Cc1ccccc1)NC(=O)[C@@H]1CCCN1C(=O)[C@H](CO)NC(=O)[C@H](C)NC1CCCCC1)C(N)=O) [Cyc-A-dPhe-6]    67%
Acetyl-Arg-Tyr-Phe-[dPhe]-Pro-Arg-Leu-amide (Ac-RYF[dF]PRL-NH2; SMILES CC(=O)N[C@@H](CCCNC(=N)N)C(=O)N[C@@H](Cc1ccc(O)cc1)C(=O)N[C@@H](Cc1ccccc1)C(=O)N[C@H](Cc1ccccc1)C(=O)N1CCC[C@H]1C(=O)N[C@@H](CCCNC(=N)N)C(=O)N[C@@H](CC(C)C)C(N)=O) [Ac-dPhe-4]    70%

Query string: Tell me the measured Melanotropic inhibitory activity, stimulator PBAN of Arg-Tyr-Phe-[dPhe]-Pro-Arg-Leu-amide (RYF[dF]PRL-NH2; N-terminus assumed; SMILES CC(C)C[C@H](NC(=O)[C@H](CCCNC(=N)N)NC(=O)[C@@H]1CCCN1C(=O)[C@@H](Cc1ccccc1)NC(=O)[C@H](Cc1ccccc1)NC(=O)[C@H](Cc1ccc(O)cc1)NC(=O)[C@@H](N)CCCNC(=N)N)C(N)=O) [dPhe-4] , please.
Result string: 18%

Query string: Tell me the measured Melanotropic inhibitory activity, stimulator PBAN of Fmoc-Ala-Ser-Pro-[dPhe]-Leu-amide (Fmoc-ASP[dF]L-NH2; SMILES CC(C)C[C@H](NC(=O)[C@@H](Cc1ccccc1)NC(=O)[C@@H]1CCCN1C(=O)[C@H](CO)NC(=O)[C@H](C)NC(=O)OCC1c2ccccc2-c2ccccc21)C(N)=O) [Fmoc-A-dPhe-6] , please.
Result string: 67%

The measured values listed here are drawn from patent US9951110B2.
